# Tested on: HCC-2998 colon
# assay comment: NCI-60 one-dose screen, 48 h
# conditions: 10 µM unless noted
The panel holds about 83,000 compounds, 20% with a hit somewhere; the sample as a whole holds those more often. The source made the active and inactive calls. Rule for the calls: active = growth percent below 10; inactive = the rest.
Returns: one label drawn from class 1 (active), class 0 (inactive)

Asked: Please indicate how the test categorized CCCCCCCCC(CO)NCCc1ccccc1 (centres undefined) .
Given back: class 0

----------
# Tested on: M14 melanoma
# assay comment: NCI-60 one-dose screen, 48 h (100 = growth as untreated, 0 = no growth, -100 = all killed)
# conditions: 10 µM unless noted
This is part of a sample that, as a whole, favours compounds with a hit. Of some 83,000 tested, about 20% had one in any assay. Active and inactive are the calls of the source. How the source made its calls: active means growth percent below 10; inactive means the rest.
observed property: growth

Below are worked cases with known answers.
Asked: Param request: growth | system M14 melanoma | item O=C([O][Hg][CH2]C1OCCOC1[CH2][Hg][O]C(=O)c1ccccc1)c1ccccc1 (centres undefined)
Given back: 73.3% (inactive)

Asked: Param request: growth | system M14 melanoma | item `COC(=O)[C@@H](C)C[C@H](Cc1ccccc1)NC(=O)c1nc([C@@H](C[C@H](C(C)C)N(C)C(=O)[C@@H](NC(=O)[C@H]2CCCN2C)C(C)C)OC(C)=O)sc1C`
Given back: 1.43% (active)

Asked: Param request: growth | system M14 melanoma | item `Cc1cc(NC(=O)NCc2ccc(N3C(N)=NC(N)=NC3(C)C)cc2)ccc1S(=O)(=O)F`
Given back: 29.5% (inactive)

Asked: Param request: growth | system M14 melanoma | item `COC(=O)[C@@H](NC(=O)c1cn(CCC2CCCCC2)c2ccccc12)C(C)(C)C`
Given back: 59.4% (inactive)

Asked: Param request: growth | system M14 melanoma | item `CS(=O)(=O)CCN1CC2CCCC(C2)C1`
Given back: 98.6% (inactive)

Asked: Param request: growth | system M14 melanoma | item `COC(=O)[C@@H](C)C[C@H](Cc1ccccc1)NC(=O)c1csc([C@@H](C[C@H](C(C)C)N(C)C(=O)[C@@H](NC(=O)[C@H]2CCCN2C)C2CC2)OC(C)=O)n1`
Given back: 5.11% (active)

Please report growth for every entry that follows.
1. O=[N+]([O-])/C=C\c1ccc(Cl)c(Cl)c1
2. CN1CC(=O)N(O)C1(C)c1cccnc1 (centres undefined)
3. CC1=C(O)[C@@](C)(CCCCC[C@H](C)CCCCc2ccc(O)cc2)OOC1=O

Given back:
1: -9.23% (active); 2: 105% (inactive); 3: 96.6% (inactive)

Reference for the values: PubChem BioAssay (NCI)
